Cited source for all entries: ChEMBL document CHEMBL3627606

target: Metabotropic glutamate receptor 1 (Homo sapiens, UniProt Q13255); assay: Positive allosteric modulation of human mGlu1 receptor in HEK293 cells assessed as potentiation of glutamate-induced calcium mobiliztion by Fluo-4AM dye based fluorescence analysis; format: functional, cell-based; details: hek293; read-out: EC50
Sequence (Q13255 whole entry): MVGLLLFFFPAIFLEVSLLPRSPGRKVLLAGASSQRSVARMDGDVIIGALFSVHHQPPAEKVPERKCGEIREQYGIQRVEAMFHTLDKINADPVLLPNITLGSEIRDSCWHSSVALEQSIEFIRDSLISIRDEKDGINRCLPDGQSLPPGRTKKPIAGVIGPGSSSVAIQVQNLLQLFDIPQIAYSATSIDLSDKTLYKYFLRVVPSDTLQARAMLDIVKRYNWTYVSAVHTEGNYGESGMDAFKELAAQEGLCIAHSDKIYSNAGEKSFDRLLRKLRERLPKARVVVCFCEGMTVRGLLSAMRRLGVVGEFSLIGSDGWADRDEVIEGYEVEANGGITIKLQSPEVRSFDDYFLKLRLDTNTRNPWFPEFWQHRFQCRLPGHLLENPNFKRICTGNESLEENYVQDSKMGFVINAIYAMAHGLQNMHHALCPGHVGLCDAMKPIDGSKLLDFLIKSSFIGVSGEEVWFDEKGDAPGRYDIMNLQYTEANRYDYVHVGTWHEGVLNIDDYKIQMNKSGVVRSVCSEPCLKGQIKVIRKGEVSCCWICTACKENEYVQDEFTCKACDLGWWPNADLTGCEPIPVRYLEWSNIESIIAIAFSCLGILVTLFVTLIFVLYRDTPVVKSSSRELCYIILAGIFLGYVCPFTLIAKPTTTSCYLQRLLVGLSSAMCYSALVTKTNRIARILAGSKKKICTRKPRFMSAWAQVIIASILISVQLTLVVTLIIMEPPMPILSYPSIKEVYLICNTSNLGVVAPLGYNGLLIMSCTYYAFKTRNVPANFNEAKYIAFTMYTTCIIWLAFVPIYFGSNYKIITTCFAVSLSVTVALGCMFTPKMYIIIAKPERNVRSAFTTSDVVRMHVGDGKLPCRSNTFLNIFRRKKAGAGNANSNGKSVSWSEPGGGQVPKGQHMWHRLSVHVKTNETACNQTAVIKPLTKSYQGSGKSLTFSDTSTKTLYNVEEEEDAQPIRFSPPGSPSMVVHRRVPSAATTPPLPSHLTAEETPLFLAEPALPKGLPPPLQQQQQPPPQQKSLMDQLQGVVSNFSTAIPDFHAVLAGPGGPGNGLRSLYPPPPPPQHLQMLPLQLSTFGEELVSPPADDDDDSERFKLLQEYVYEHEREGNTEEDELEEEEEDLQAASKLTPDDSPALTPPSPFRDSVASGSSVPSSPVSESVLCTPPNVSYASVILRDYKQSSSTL
pEC50: −log10 of the molar value.
reported_endpoint: pEC50

| smiles_entry | value |
| --- | --- |
| O=C(Nc1ccc(N2C(=O)c3cccc(Cl)c3C2=O)c(Cl)c1)c1ncccc1Cl | 6.41 |

---

// IC50 collected for Cytochrome P450 2C9 (Homo sapiens)

| smiles_entry | target_or_test_system | IC50 |
| --- | --- | --- |
| Cc1ccoc1C(=O)Nc1ccc(N2C(=O)c3ccc(Cl)cc3C2=O)c(Cl)c1 | Cytochrome P450 2C9 (Homo sapiens) | > 30 µM |
| O=C(Nc1ccc(N2C(=O)c3cccc(Cl)c3C2=O)c(Cl)c1)c1ncccc1Cl | Cytochrome P450 2C9 (Homo sapiens) | > 30 µM |

---

molecular target: UniProt Q13255; assay: Positive allosteric modulation of human mGlu1 receptor in HEK293 cells assessed as potentiation of glutamate-induced calcium mobiliztion by Fluo-4AM dye based fluorescence analysis relative to glutamate; assay type: functional, cell-based
Sequence (Q13255 19-1194 limits assumed): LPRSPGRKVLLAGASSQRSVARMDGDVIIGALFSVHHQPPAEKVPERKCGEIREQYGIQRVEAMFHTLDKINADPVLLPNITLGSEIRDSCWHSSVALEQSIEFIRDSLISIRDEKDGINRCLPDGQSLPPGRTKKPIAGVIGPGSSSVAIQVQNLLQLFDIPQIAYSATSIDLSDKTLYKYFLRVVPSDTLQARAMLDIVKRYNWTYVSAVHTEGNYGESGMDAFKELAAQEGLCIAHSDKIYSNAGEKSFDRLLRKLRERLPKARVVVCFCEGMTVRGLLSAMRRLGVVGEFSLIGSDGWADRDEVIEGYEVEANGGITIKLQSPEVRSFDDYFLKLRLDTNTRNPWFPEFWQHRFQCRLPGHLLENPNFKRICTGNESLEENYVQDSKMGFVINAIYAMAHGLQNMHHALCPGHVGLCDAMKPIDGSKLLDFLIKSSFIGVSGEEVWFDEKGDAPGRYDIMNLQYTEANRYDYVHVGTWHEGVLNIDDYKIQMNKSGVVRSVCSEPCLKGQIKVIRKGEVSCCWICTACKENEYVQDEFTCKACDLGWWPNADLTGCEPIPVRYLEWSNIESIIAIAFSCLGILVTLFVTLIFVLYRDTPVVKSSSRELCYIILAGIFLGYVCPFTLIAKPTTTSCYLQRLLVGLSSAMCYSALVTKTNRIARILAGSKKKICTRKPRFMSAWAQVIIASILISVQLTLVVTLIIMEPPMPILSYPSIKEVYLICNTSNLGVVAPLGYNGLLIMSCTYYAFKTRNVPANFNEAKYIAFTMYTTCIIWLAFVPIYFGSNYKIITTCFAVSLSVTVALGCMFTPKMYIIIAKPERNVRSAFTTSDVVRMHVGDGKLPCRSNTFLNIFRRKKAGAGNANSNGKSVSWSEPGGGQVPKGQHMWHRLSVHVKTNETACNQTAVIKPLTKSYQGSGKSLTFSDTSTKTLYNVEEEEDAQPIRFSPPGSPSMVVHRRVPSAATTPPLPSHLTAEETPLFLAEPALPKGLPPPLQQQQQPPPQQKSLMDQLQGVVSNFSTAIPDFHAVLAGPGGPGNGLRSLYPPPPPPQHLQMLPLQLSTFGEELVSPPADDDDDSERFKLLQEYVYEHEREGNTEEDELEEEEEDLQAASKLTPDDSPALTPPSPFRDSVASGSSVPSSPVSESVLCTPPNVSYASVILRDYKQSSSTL
Values of %max strictly less than 90% map to 1 (yes), and values of at least 90% map to 0 (no).

| smiles_entry | class_name |
| --- | --- |
| CCc1ccc(C(=O)Nc2ccc(N3C(=O)c4ccccc4C3=O)c(Cl)c2)o1 | 1 (yes) |
| O=C(Nc1ccc(N2C(=O)c3ccccc3C2=O)c(Cl)c1)c1cscn1 | 0 (no) |
| O=C(Nc1ccc(N2C(=O)c3ccccc3C2=O)c(Cl)c1)c1ccc(C(F)(F)F)o1 | 1 (yes) |
| Cc1ccoc1C(=O)Nc1ccc(N2C(=O)c3ccc(Cl)cc3C2=O)c(Cl)c1 | 0 (no) |

---

assay: Intrinsic clearance in human liver microsomes at 1 uM by LC-MS/MS analysis; assay type: ADME; settings: read-out: CLH
Documented CLint scaled at 1 µM across a set of compounds

| smiles_entry | unit_name | CLint scaled at 1 µM |
| --- | --- | --- |
| Cc1ccoc1C(=O)Nc1ccc(N2C(=O)c3ccc(Cl)cc3C2=O)c(Cl)c1 | mL/min/kg | 2.9 |
| Cc1ccoc1C(=O)Nc1ccc(N2C(=O)c3ccncc3C2=O)c(Cl)c1 | mL/min/kg | 167 |
| Cc1ccoc1C(=O)Nc1ccc(N2C(=O)c3cccc(F)c3C2=O)c(Cl)c1 | mL/min/kg | 3.1 |

---

test: Drug concentration in Sprague-Dawley rat brain at 0.2 mg/kg, iv after 0.25 hrs by LC-MS/MS analysis; conditions: read-out: Drug uptake
Hi! Just check whether concentration at 0.25 h is below 80 ng/mL. Below gives YES, equal or above gives NO.

| smiles_entry | class_name |
| --- | --- |
| Cc1ccoc1C(=O)Nc1ccc(N2C(=O)c3ccc(Cl)cc3C2=O)c(Cl)c1 | NO |
| O=C(Nc1ccc(N2C(=O)c3cccc(Cl)c3C2=O)c(Cl)c1)c1ncccc1Cl | NO |
| Cc1ccoc1C(=O)Nc1ccc(N2C(=O)c3ccncc3C2=O)c(Cl)c1 | YES |
| Cc1ccoc1C(=O)Nc1ccc(N2C(=O)c3cccc(F)c3C2=O)c(Cl)c1 | NO |

---

Quick reference: %max of the listed items.
molecular target: Metabotropic glutamate receptor 1 (Homo sapiens); test: Positive allosteric modulation of human mGlu1 receptor in HEK293 cells assessed as potentiation of glutamate-induced calcium mobiliztion by Fluo-4AM dye based fluorescence analysis relative to glutamate; format: functional, cell-based
reported_endpoint: %max (%)

| smiles_entry | reported_endpoint | value |
| --- | --- | --- |
| CS(=O)(=O)c1ccc(C(=O)Nc2ccc(N3C(=O)c4ccccc4C3=O)c(Cl)c2)o1 | %max | 35 |
| O=C(Nc1ccc(N2C(=O)c3ccccc3C2=O)c(Cl)c1)c1ccc(-c2ccccc2)o1 | %max | 30 |
| O=C(Nc1ccc(N2C(=O)c3ccccc3C2=O)c(Cl)c1)c1ccco1 | %max | 76 |
